Target: T1, phospholipase A2 (PLA2) (Homo sapiens (Human), UniProt O15496 43-165)
T1 sequence: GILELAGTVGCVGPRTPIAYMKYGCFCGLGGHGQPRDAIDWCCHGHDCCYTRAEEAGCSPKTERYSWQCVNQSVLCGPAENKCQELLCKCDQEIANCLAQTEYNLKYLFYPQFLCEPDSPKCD
Test: cell-based or functional assay
Mark 1 only when IC50 of inhibition of PLA2 enzyme activity (12-point dose curve) stays strictly below 9 nM. Values equal to the cut-off are -1.

For orientation, consider the following solved cases.
binder	assigned_class
anti-PLA2 mAb 2.23 (antibody, IgG4, V domains shown) VH: QVQLEESGGGVVQPGRSLRLSCAASGFTFSSYGMHWVRQGPGKGLEWVAVIWYDGSNKKYADSVKGRFTISRDNSKNTLYLQMNSLRAEDTAVYYCARDGPIFGVVMGYWGQGTLVTVSS VL: DIQMTQSPSSLSASVGDRVTITCRTSQSISNYLNWFQQKPGKAPILLIYAASSLQSGVPSRFSGSGSGTDFTLTISSLQPEDFATYYCHQSYSIPITFGQGTRLEIKR	-1
anti-PLA2 mAb 1.5 (antibody, IgG2, V domains shown, also called 1.5.1) VH: EVQLVQSGAEVKKPGESLKISCKGSGYSFISYWIGWVRQMPGKGLEWMGIIYPGDSDTRYSPSFQGQVTISADKSISTAYLQWSSLKASDTAMYYCARHWSYGMDVWGQGTTVTVSS VL: EIVLTQSPGTLSLSPGERATLSCRASQSVRSGYLAWYQQRPGQAPRFLIYGASSRATGIPDRFSGSGSGTDFTLTISRLEPEDFAVYYCQQYGSSPLTFGGGTKVEIKR	1

-- ask A record lists anti-PLA2 mAb 1.18 (antibody, IgG2, V domains shown) VH: EVQLVQSGAEVKKPGESLKISCKGSGYSFTNYWINWVRQMPGKGLEWMGIIYPGDSDTRYSPSFQGQVTISADKSISTAYLQWSSLKASDTAMYYCARHRLGFDYWGQGTLVTVSS VL: DIQMTQSPSSLSASVGDRVTITCRASQGIRNDLDWCQQKPGKAPKRLIYAASSLQSGVPSRFSGSGSGTEFTLTISSLQPEDFATYYCLQHNNYPPTFGQGTKVEIKR . Is its IC50 of inhibition of PLA2 enzyme activity (12-point dose curve) below 9 nM?
-- reply 1

-- ask Given anti-PLA2 mAb 1.27 (antibody, IgG2, V domains shown) VH: EVQLVQSGAEVKKPGESLKISCKGSGYSFTSYWIGWVRQMPGKGLEWMGIIYPGDSDTRYSPSFQGQVTISADKSISTAYLQWSSLKASDTAMYYCARSWTYGMDVWGQGTTVTVSS VL: EIVLTQSPGTLSLSPGERATLSCRASQSVRSNYLTWYQQKPGQAPRLLIYGASTRATGIPDRFSGSGSGTDFTLTISRLEPEDFAVYYCQQYGSSPLTFGGGTKVEIKR , is recorded IC50 of inhibition of PLA2 enzyme activity (12-point dose curve) strictly lower than 9 nM?
-- reply -1

-- ask Below 9 nM on IC50 of inhibition of PLA2 enzyme activity (12-point dose curve)? Entry anti-PLA2 mAb 2.15 (antibody, IgG4, V domains shown) VH: QVQLVESGGGVVQPGRSLRLSCAASGFTFSSYGMHWVRQAPGKGLEWVAVIWYDGSNKYYADSVKGRFTISRDNSKNTLYLQMNSLRAEDTAVYYCARRDWNYAFDIWGQGTMVTVSS VL: DIQMTQSPSSLSASVGDRVTITCRASQSISNYLNWYQQKPGKAPKFLIYAASSLQSGAPSRFSGSGSGTDFTLTISSLQPEDFATYYCQQSYSTPITFGQGTRLEIKR
-- reply -1

-- ask In plain terms, does anti-PLA2 mAb 1.7 (antibody, IgG2, V domains shown, also called 1.7.1) VH: EVQLVQSGAEVKKPGESLKISCKGSGYSFISYWIGWVRQMPGKGLEWMGIIYPGDSDTRYSPSFQGQVTISADKSISTAYLQWSSLKASDTAMYYCARSWTYALDVWGQGTAVTVSS VL: EIVLTQSPGTLSLSPGERATLSCRPSQSVRSNYLTWYQQKPGQAPRLLIYGASTRATGIPDRFSGSGSGTDFTLTVSRLEPEDFAVYYCQQYGSSPLTFGGGTKVEIKR come in under 9 nM for IC50 of inhibition of PLA2 enzyme activity (12-point dose curve)?
-- reply 1
